Measured values drawn from PubChem BioAssay (EPA / NIEHS) for this set.

- Protocol description: APR_HepG2_CellLoss_24hr: Apredica 24-hour HepG2 Assay for Cell Loss (AID 2282908)
- Condition details: high-content imaging
Calls of active or inactive are those of the source. Rule for the calls: active = hit-call score of the fitted dose curve at least 0.9, where 1 is the maximum; inactive = score below 0.9.
Log the outcome using a class from active, inactive

>>> print(df.to_string())
                              smiles_record  discrete_label
0                           Cc1ccc(O)c(C)c1        inactive
1                CC#Cc1cc(C)nc(Nc2ccccc2)n1        inactive
2  CCC(=O)O[C@H]1CC[C@H]2[C@@H]3CCC4=CC(=O)CC[C@]4(C)[C@H]3CC[C@]12C          active

Now consider a different compound.
stdin: // outcome(item) with item = `O=S(=O)(O)C(F)(F)C(F)(F)C(F)(F)C(F)(F)F`
stdout: inactive

###

- Read-out: Vascular cell adhesion molecule 1 (VCAM1), VCAM1 (gene 7412)
- Protocol description: BSK_hDFCGF_VCAM1: BioMAP Diversity Plus: hDFCGF Assay for Vascular cell adhesion molecule 1 (VCAM1) Biomarker Activity (AID 2283065)
- Condition details: primary human foreskin fibroblasts; actives raise or lower the signal
Activity calls are given as the source filed them. How the source made its calls: active means hit-call score of the fitted dose curve at least 0.9, where 1 is the maximum; inactive means score below 0.9.
Log the outcome using a class from active, inactive

Take a look at these entries with their results.
                                   molecule  discrete_label
0                              CCCN(CCC)N=O        inactive
1  CCC(=O)O[C@H]1CC[C@H]2[C@@H]3CCC4=CC(=O)CC[C@]4(C)[C@H]3CC[C@]12C          active
2                CC#Cc1cc(C)nc(Nc2ccccc2)n1        inactive

stdin: // outcome(item) with item = `CCOP(=S)(OCC)SCSC(C)(C)C`
stdout: inactive

stdin: // outcome(item) with item = C1CC2OC2CC1C1CO1 (stereo not given)
stdout: inactive

stdin: // outcome(item) with item = `ClC1=C(Cl)[C@]2(Cl)[C@@H]3[C@@H](Cl)[C@H]4O[C@H]4[C@@H]3C1(Cl)C2(Cl)Cl`
stdout: inactive

stdin: // outcome(item) with item = `O=S(=O)(O)C(F)(F)C(F)(F)C(F)(F)C(F)(F)F`
stdout: inactive

stdin: // outcome(item) with item = `CCCCCCOC(=O)c1ccccc1C(=O)OCCCCCC`
stdout: inactive

stdin: // outcome(item) with item = `O=NN(c1ccccc1)c1ccccc1`
stdout: inactive

stdin: // outcome(item) with item = `C[C@]12CCC(=O)C=C1CC[C@@H]1[C@@H]2CC[C@@]2(C)[C@H]1CC[C@]2(C)O`
stdout: inactive

stdin: // outcome(item) with item = `CC1=C2C[C@H]3[C@@H](CC=C4C[C@@H](O)CC[C@@]43C)[C@@H]2CC[C@]12O[C@@H]1C[C@H](C)CN[C@H]1[C@H]2C`
stdout: inactive

stdin: // outcome(item) with item = `CC(c1ccc(O)cc1)(c1ccc(O)cc1)c1ccc(O)cc1`
stdout: active

stdin: // outcome(item) with item = `Cc1ccccc1O`
stdout: inactive

stdin: // outcome(item) with item = Clc1ccc(C(c2ccccc2Cl)C(Cl)(Cl)Cl)cc1 (stereo not given)
stdout: active

stdin: // outcome(item) with item = `CCC(C)(c1ccc(O)cc1)c1ccc(O)cc1`
stdout: active
